Assay comment: chemical genetic growth profiling, strain panel (AID 1159580);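 further: tested at 20 µM; growth read once vehicle control cultures reached saturation at 30 °C; 1 = growth at the plate median or of vehicle wells; lower values mean less growth of the strain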
Reported conditions: S. cerevisiae deletion strains, growth OD, locus YKL048C, strain ELM1, stronger effect = lower value
Hit rate of the full screen: of about 5,500 compounds, about 2,000 (36%) were called active. Not shown: some 18% with an inconclusive outcome. Some of the results follow.
Endpoint: normalized growth
Response field accepts a number only; no unit should be typed.

Example cases with answers are listed next.
1) Cc1onc(-c2ccccc2Cl)c1-c1nc2ccccc2c(=O)o1    0.947
2) Cc1nc(C(F)(F)F)c(C(=O)O/N=C(/N)c2ccc(Cl)cc2)s1    1
3) CCc1cc2c(cc1-c1csc(C/C(N)=N\O)n1)C(C)(C)CCC2(C)C    0.721
4) COCCOc1ccccc1NC(=S)SCCSC(=S)Nc1ccccc1OCCOC    0.944

Consider now this further compound.
Return normalized growth for the following compound: CCOC(=O)CCc1cc(N=Cc2cc(Br)ccc2O)c(O)c(N=Cc2cc(Br)ccc2O)c1 0.873

###

Assay comment: chemical genetic growth profiling, strain panel (AID 1159580);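 further: tested at 20 µM; growth read once vehicle control cultures reached saturation at 30 °C; 1 = growth at the plate median or of vehicle wells; lower values mean less growth of the strain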
Reported conditions: S. cerevisiae deletion strains, growth OD, locus YER155C, strain BEM2
In all, about 5,500 compounds went through this assay and about 2,000 (36%) were called active. Inconclusive results (about 18%) are left out. Cut-off read from the data, not from the text of the source: active = normalized growth mostly below about 0.91 (no sharp cut-off); inconclusive = no clear call, values can overlap the other calls; inactive = mostly above about 0.92. This is one part of the list.
Your response should consist of one outcome taken from T (active), F (inactive)

1) CCCN(CCC)C(=O)C(CCC(=O)O)NC(=O)c1ccccc1 (centres undefined)    F
2) CC1=CC(=O)CC(C)(C)C1(O)/C=C/C(C)=C\C(=O)O (centres undefined)    F
3) Cc1cccc(CN2CCN(C(c3ccccc3)c3ccc(Cl)cc3)CC2)c1 (centres undefined)    T
4) CCOC(N)=O    F
5) CO[C@@H]1[C@@H](O[C@@H]2O[C@H](C)[C@@H](O[C@H]3C[C@@](C)(O)[C@H](O)[C@H](C)O3)[C@H](N(C)C)[C@H]2O)[C@@H](CC=O)C[C@@H](C)[C@@H](O[C@H]2CC[C@H](N(C)C)[C@@H](C)O2)/C=C/C=C/C[C@H](C)OC(=O)C[C@H]1O    F
6) Nc1c(Br)cc(Br)cc1CNC1CCC(O)CC1 (centres undefined)    F
7) O=C(O)CCC(=O)c1ccc(-c2ccccc2)cc1    F
8) O=C1N=C(O)CN1/N=C\c1ccc(-c2ccc([N+](=O)[O-])cc2)o1    F

Then there is this compound:
What call does the record list for O=C1CN(/N=C\c2ccc([N+](=O)[O-])o2)C(=O)N1 ? F

###

Here the recorded normalized growth is given for each entry.
Assay comment: chemical genetic growth profiling, strain panel (AID 1159580);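 further: tested at 20 µM; growth read once vehicle control cultures reached saturation at 30 °C; 1 = growth at the plate median or of vehicle wells; lower values mean less growth of the strain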
Reported conditions: S. cerevisiae deletion strains, growth OD, locus YBR136W, strain MEC1, stronger effect = lower value
Out of some 5,500 compounds screened, about 2,000 (36%) were called active. Inconclusive results (about 18%) are left out. The list shows a part of the results.
Response field accepts a number only; no unit should be typed.

Example cases with answers are listed next.
1. O=C(NCc1ccco1)c1csc(C2COc3ccccc3O2)n1 (centres undefined)    0.925
2. COCCOc1ccccc1NC(=S)SCCSC(=S)Nc1ccccc1OCCOC    0.977
3. O=C(CCSc1cccs1)Nc1cccc(C(F)(F)F)c1    0.911
4. N=C(N)SCc1nc(-c2ccc(Cl)cc2)no1    0.984
5. CCc1cc2c(cc1-c1csc(C/C(N)=N\O)n1)C(C)(C)CCC2(C)C    0.981
6. COc1cc(N=Cc2cc(Cl)cc(Cl)c2OC(=O)c2cc(OC)c(OC)c(OC)c2)c(OC)cc1Cl    0.974
7. NC(=NC(=O)c1ccc(Cl)cc1)c1cccs1    0.949
8. CC1(C)C/C(=N/Nc2ccc(C(F)(F)F)cc2)c2cc(C(C)(C)C)c(O)c(O)c2O1    0.978
9. COc1cc(C(=O)Oc2c(Cl)cc(Cl)cc2C=Nc2ccc([N+](=O)[O-])cc2C#N)cc(OC)c1OC    0.988
10. O=C1/C(=C/c2c(F)cccc2Cl)Cc2ccccc21    0.962

Consider now this further compound.
Return normalized growth for the following compound: COc1ccccc1NC(=O)Nc1nn(C)c2cccc(OC)c12 0.919
